# Measurement Target: IB4 lectin from Griffonia simplicifolia (Griffonia simplicifolia)
# Assay Summary: competition ELISA (I50): peptide inhibits biotinylated IB4 binding to Galα(1,3)Gal-BSA
Measure Name: IC50 (µM)

Illustrative cases are given below, each with its answer.
Reported IC50 of DAHWESWL [Gal pep 1 (DAHWESWL), synthetic peptide] : 300

IC50 for TGSGHASSTPGGEKETSAQRSSVP [Muc pep 6] is 1250

(a) TSSASTGHATPLPVTP [Muc pep 11]
(b) CPAHGVTSAPDTRPAPGSTAP [Muc pep 1]
Returns: the label, a or b , whose recorded IC50 is the lower number. Indicate your choice by writing its label.
b
